- Tested on: SUM149PT spheroids with HUVEC/MSC, viability
- assay_summary: Anticancer human tumor SUM149PT cell line growth inhibition [GQUAD];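 further: spheroids exposed to drugs for seven days before readout; percent viability relative to DMSO vehicle control taken as 100%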
- setup_conditions: second compound 0.316 µM; first compound 0.1 µM; hits give low values
The reader will find reported viability, T/C values listed item by item below.
Write the value in % as a bare number.

# annotated cases, reported viability, T/C shown
compound	target	outcome_measure	obs_value
CC(C)(O)C1CCC(Nc2ccc3ncc(-c4cccc(C(F)(F)F)c4)n3n2)CC1 (stereo not given) + Cc1cnc(CNC(=O)c2c(=O)c3ccc(N4CCCN(C)CC4)nc3n3c2sc2ccccc23)cn1	SUM149PT spheroids with HUVEC/MSC, viability	viability, T/C	50.8
CC1COCCN1c1cc(-c2ccnn2C)c2ccnc(-c3ccn[nH]3)c2n1 (stereo not given) + Cc1[nH]c2ccc(F)cc2c1-c1nc2c3cccnc3c3ncccc3c2[nH]1	SUM149PT spheroids with HUVEC/MSC, viability	viability, T/C	51.4
COc1cccc2c1C(=O)c1c(O)c3c(c(O)c1C2=O)CC(O)(C(=O)CO)CC3OC1CC(N)C(O)C(C)O1 (stereo not given) + Cc1[nH]c2ccc(F)cc2c1-c1nc2c3cccnc3c3ncccc3c2[nH]1	SUM149PT spheroids with HUVEC/MSC, viability	viability, T/C	60.2
COc1ccc([C@@H](O)c2cc(-c3ncnc4cc(N5CCOCC5)ccc34)c(F)cc2Cl)nn1 + CN(C)c1ccc(Nc2c3ccc(NC(=O)CCN4CCCC4)cc3nc3cc(NC(=O)CCN4CCCC4)ccc23)cc1	SUM149PT spheroids with HUVEC/MSC, viability	viability, T/C	87.4
CC1COCCN1c1cc(C2(O)CC3CCC(C2)O3)c2cnn(-c3ccn[nH]3)c2n1 (stereo not given) + Cc1cnc(CNC(=O)c2c(=O)c3ccc(N4CCCN(C)CC4)nc3n3c2sc2ccccc23)cn1	SUM149PT spheroids with HUVEC/MSC, viability	viability, T/C	21.5

Input line: Please report the recorded viability, T/C for C=CCn1c(=O)c2cnc(Nc3ccc(N4CCN(C)CC4)cc3)nc2n1-c1cccc(C(C)(C)O)n1 + CN(C)c1ccc(Nc2c3ccc(NC(=O)CCN4CCCC4)cc3nc3cc(NC(=O)CCN4CCCC4)ccc23)cc1 .
Output line: 62.1

Input line: Please report the recorded viability, T/C for O=C(NO)c1cnc(N2CCN(S(=O)(=O)c3ccc4ccccc4c3)CC2)nc1 + Cc1cnc(CNC(=O)c2c(=O)c3ccc(N4CCCN(C)CC4)nc3n3c2sc2ccccc23)cn1 .
Output line: 54

Input line: Please report the recorded viability, T/C for Cc1cccc(N(C)C(=O)C2C(O)CCN2c2nc(C)cc(C(F)(F)F)c2C#N)c1 (stereo not given) + CN(C)c1ccc(Nc2c3ccc(NC(=O)CCN4CCCC4)cc3nc3cc(NC(=O)CCN4CCCC4)ccc23)cc1 .
Output line: 93.7

Input line: Please report the recorded viability, T/C for CC(=O)O[C@H]1C(=O)[C@@]2(C)[C@H]([C@H](OC(=O)c3ccccc3)[C@]3(O)C[C@H](OC(=O)[C@H](O)[C@@H](NC(=O)c4ccccc4)c4ccccc4)C(C)=C1C3(C)C)[C@]1(OC(C)=O)CO[C@@H]1C[C@@H]2O + CN(C)c1ccc(Nc2c3ccc(NC(=O)CCN4CCCC4)cc3nc3cc(NC(=O)CCN4CCCC4)ccc23)cc1 .
Output line: 25.6
